Examples of binders with documented koff follow.
target: human polyclonal IgG (human); assay: SPR (Biacore), His-tagged fusion protein captured on Ni-NTA chip, human IgG injected
A number alone suffices; assume s⁻¹.

fusion protein PL3 (designed binder) ATIRANLIYADGRTQTAEFRGTFEEATAEAYRYADLLPRENGRYTVDVADRGYTLNIRFAPGATIRANLIYADGRTQTAEFRGTFEEATAEAYRYADLLPRENGRYTVDVADRGYTLNIRFAPGATIRANLIYADGRTQTAEFRGTFEEATAEAYRYADLLPRENGRYTVDVADRGYTLNIRFAGGGGGCADDDDDDHHHHHH; 0.000237

koff for fusion protein PL2 (designed binder) ATIRANLIYADGRTQTAEFRGTFEEATAEAYRYADLLPRENGRYTVDVADRGYTLNIRFAPGATIRANLIYADGRTQTAEFRGTFEEATAEAYRYADLLPRENGRYTVDVADRGYTLNIRFAGGGGGCADDDDDDHHHHHH ?
0.000264

koff for fusion protein PG3 (designed binder) AYRLILNGRTLRGETTTEAVDAATAERVFRQYANDNGVDGEWTYDDATRTFTVTERPEVIDASELTPAVTPGAYRLILNGRTLRGETTTEAVDAATAERVFRQYANDNGVDGEWTYDDATRTFTVTERPEVIDASELTPAVTPGAYRLILNGRTLRGETTTEAVDAATAERVFRQYANDNGVDGEWTYDDATRTFTVTERPEVIDASELTPAVTGGGGCADDDDDDHHHHHH ?
7.63e-05

koff for fusion protein PL1 (designed binder) ATIRANLIYADGRTQTAEFRGTFEEATAEAYRYADLLARENGRYTVDVADRGYTLNIRFAGGGGGCADDDDDDHHHHHH ?
0.000312
